As shown below, each of these molecules has a reported melting point value.

Reference set (3 entries):
MOL | OBSERVED
CC(C)(C)c1ccc(COc2cccc(C(=O)Nc3ccccc3S(=O)(=O)NC(=O)/C=C/c3ccccc3)c2)cc1 | 110 to 111 °C
O=C(Nc1ccccc1S(=O)(=O)NC(=O)c1ccc(C(F)(F)F)cc1)c1cccc(OCc2ccccc2)c1 | 220 to 221 °C
O=C(Nc1ccccc1S(=O)(=O)NC(=O)c1ccc(F)cc1F)c1cccc(OCc2ccccc2)c1 | 208 to 209 °C

# context switch: different molecule, same melting point
Noted for CCCCCCCCNC(=O)NS(=O)(=O)c1ccccc1NC(=O)c1cccc(OCc2ccccc2)c1 : its melting point reads 124 to 125 °C
